From: ChEMBL document CHEMBL3217464

Field: metabolised at 10 h, 100 ug/ml. Provide a value for each of the compounds that follow.
assay: Stability of the compound assessed as compound digestion at 100 ug/ml after 10 hrs by RP-HPLC analysis in presence of proteinase-K; assay type: ADME; settings: read-out: Drug degradation
Where a SMILES comes first, the peptide text is derived from it. [ ]: non-standard residue; d: D form. The star is where a group is joined. Benzoyl(4-(biphenyl-4-yl)) = O=C(c1ccc(-c2ccc(-c3ccccc3)cc2)cc1)*; Linoleoyl = CCCCC/C=C\C/C=C\CCCCCCCC(=O)*; Orn = NCCC[C@H](N)C(=O)O
Report the value in % with no unit label.

Data request, read-out metabolised at 10 h, 100 ug/ml, for NCCC[C@H](NC(=O)c1ccc(-c2ccc(-c3ccccc3)cc2)cc1)C(=O)N[C@@H](CCCN)C(=O)N[C@@H](Cc1c[nH]c2ccccc12)C(=O)N[C@@H](Cc1c[nH]c2ccccc12)C(N)=O ({Benzoyl(4-(biphenyl-4-yl))}-[Orn][Orn]WW-NH2)
14

Next up: CCCCC/C=C\C/C=C\CCCCCCCC(=O)N[C@@H](CCCN)C(=O)N[C@@H](CCCN)C(=O)N[C@@H](Cc1c[nH]c2ccccc12)C(=O)N[C@@H](Cc1c[nH]c2ccccc12)C(N)=O (Linoleoyl-[Orn][Orn]WW-NH2)
17
